What fraction unbound was measured for each of the following?
test: Fraction unbound in human plasma; format: ADME, cell-free
Keep the answer to the number alone.

**Query** Consider the molecule C[C@@H]1CCC[C@H](N2CCC(c3c(F)ccc(Cl)c3F)=CC2=O)c2cc(ccn2)-c2c(cnn2C)NC1=O and give its measured fraction unbound.
**Result** 0.007

**Query** Do the same for C[C@@H]1CCC[C@H](n2cnc(-c3cc(Cl)ccc3-n3cc(Cl)nn3)cc2=O)c2cc(ccn2)-c2c(cnn2C(F)F)NC1=O please
**Result** 0.085

* * *

target: Myeloblastin (Homo sapiens); assay: Binding affinity to human neutrophil proteinase 3 assessed as inhibition constant using Methoxysuccinyl-L-alanyl-L-alanyl-L-prolylL-valine p-Nitroaniline as substrate measured upto 120 mins by spectrophotometric analysis
Sequence (P24158 whole entry): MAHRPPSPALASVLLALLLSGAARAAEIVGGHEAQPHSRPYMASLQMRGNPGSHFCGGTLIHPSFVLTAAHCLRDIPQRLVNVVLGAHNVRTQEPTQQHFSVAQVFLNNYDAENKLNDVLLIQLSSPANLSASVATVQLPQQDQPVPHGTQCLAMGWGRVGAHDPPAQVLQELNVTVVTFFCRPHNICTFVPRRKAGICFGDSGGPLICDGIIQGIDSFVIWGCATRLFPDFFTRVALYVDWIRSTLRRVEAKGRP
measure_name: Ki

**Query** Consider the molecule C[C@@H]1CCC[C@H](n2cnc(-c3cc(Cl)ccc3-n3cc(Cl)nn3)cc2=O)c2cc(ccn2)-c2c(cnn2C(F)F)NC1=O and give its measured Ki.
**Result** > 12 µM
